# studySystem: GDP-bound KRAS protein (aa 1-169), containing both G12C and C118A amino acid substitutions (Homo sapiens (Human), UniProt P01116, C118A/G12C)
# Sequence (P01116 other isoform, or with tags, fused parts or gaps G12C/C118A): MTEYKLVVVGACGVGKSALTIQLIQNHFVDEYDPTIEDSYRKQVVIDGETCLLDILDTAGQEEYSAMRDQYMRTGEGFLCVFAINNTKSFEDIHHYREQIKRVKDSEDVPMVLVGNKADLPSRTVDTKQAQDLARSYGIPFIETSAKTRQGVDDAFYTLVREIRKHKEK
# procedureDetails: Coupled Nucleotide Exchange Assay
# Format: biochemical
# experimentalContext: second Coupled Exchange column; read-out: Coupled Exchange IC50
experimentalEndpoint: pIC50
Conceptually, pIC50 converts a concentration in mol/L into minus its log10.

Solved cases below.
Task: Please give the documented pIC50 of C=CC(=O)N1CC(NC(=O)Cn2c(C)c(-c3cccnc3Br)c3cc(Cl)ccc32)C1 [Example 305]
Output: 5.53

Task: Please give the documented pIC50 of C=CC(=O)N1CC(NC(=O)Cn2c(C)c(-c3ccccc3C(C)(C)C)c3cc(Cl)ccc32)C1 [Example 318]
Output: 4.00

Task: Please give the documented pIC50 of C=CC(=O)N1CC(NC(=O)Cn2c(C#N)c(I)c3cc(Br)ccc32)C1 [Example 304]
Output: 5.14

Task: Please give the documented pIC50 of C=CC(=O)N1CC(NC(=O)Cn2cc(CC(=O)N3CCCC4(CCCN(C)C4)C3)c3cc(Br)ccc32)C1 (stereo not shown) [Example 322]
Output: 5.68

---
Task: Please give the documented pIC50 of C=CC(=O)N1CC(NC(=O)Cn2c(C)c(-c3nccnc3Cl)c3cc(Cl)ccc32)C1 [Example 281]
Output: 4.87

Task: Please give the documented pIC50 of C=CC(=O)N1CC(NC(=O)Cn2c(C)c(-c3ncccc3Cl)c3cc(Cl)ccc32)C1 [Example 306]
Output: 5.02

Task: Please give the documented pIC50 of C=CC(=O)N1CC(NC(=O)Cn2ccc3c(Cl)c(Cl)ccc32)C1 [Example 317]
Output: 4.81

###

# studySystem: GDP-bound KRAS protein (aa 1-169), containing both G12C and C118A amino acid substitutions (Homo sapiens (Human), UniProt P01116, C118A/G12C)
# procedureDetails: Coupled Nucleotide Exchange Assay
# Format: biochemical
# experimentalContext: read-out: Coupled Exchange IC50 (20 h); 20 h compound pre-incubation
Below: a set of entries, each annotated with reported pIC50.
Conceptually, pIC50 converts a concentration in mol/L into minus its log10.

Task: Please give the documented pIC50 of C=CC(=O)N1CC(NC(=O)Cn2cc(-c3ccccc3C)c3cc(Cl)ccc32)C1
Output: 5.92

---
Task: Please give the documented pIC50 of C=CC(=O)N1CC(NC(=O)Cn2cc(C#N)c3cc(Br)ccc32)C1
Output: 5.28

Task: Please give the documented pIC50 of C=CC(=O)N1CC(NC(=O)Cn2c3c(c4cc(Br)ccc42)CCCC3=O)C1
Output: 5.48

Task: Please give the documented pIC50 of C=CC(=O)N1CC(NC(=O)Cn2ccc3cc(I)ccc32)C1
Output: 5.43

Task: Please give the documented pIC50 of C=CC(=O)N1CC(NC(=O)Cn2c(C3CC3)c(C(=O)N3CCc4c(ccnc4OC)C3)c3cc(Cl)cc(C)c32)C1
Output: 8.00

Task: Please give the documented pIC50 of C=CC(=O)N1CC(NC(=O)Cn2cc(C(C)(O)C(=O)NCc3ccccc3)c3cc(Br)ccc32)C1 (centres unmarked)
Output: 5.64

Task: Please give the documented pIC50 of C=CC(=O)N1CC(NC(=O)Cn2cc(-c3cccc(-c4ccccc4)c3)c3cc(Br)cc(C)c32)C1
Output: 5.49

###

# studySystem: GDP-bound KRAS protein (aa 1-169), containing both G12C and C118A amino acid substitutions (Homo sapiens (Human), UniProt P01116, C118A/G12C)
# procedureDetails: Coupled Nucleotide Exchange Assay
# Assay type: biochemical
# experimentalContext: read-out: Coupled Exchange IC50 (2 h); 2 h compound pre-incubation
# Method: For compounds in Table 9, the following assay conditions were employed: Coupled Nucleotide Exchange Assay: The assay plates were then read on a PerkinElmer EnVision Multilabel Reader, using AlphaScreen® technology, and data were analyzed using a 4-parameter logistic model to calculate IC50 values.
pIC50: −log10 of the molar value.
Could you label it label 1 if measured pIC50 is 5 or higher, and label 0 otherwise?

Answered examples (6):
Task: Could you tell me if the measured pIC50 of C=CC(=O)N1CC(NC(=O)Cn2cc(I)c3cc(Br)cc(CC)c32)C1 reaches 5 or more?
Output: label 1

Task: Could you tell me if the measured pIC50 of C=CC(=O)N1CC(NC(=O)Cn2c3c(c4cc(Br)ccc42)CC(c2ccccc2)CC3)C1 (stereo not shown) reaches 5 or more?
Output: label 1

Task: Could you tell me if the measured pIC50 of C=CC(=O)N1CC(NC(=O)Cn2cc(-c3c(C)ccc4cn[nH]c34)c3cc(-c4c(C)ccc5cn[nH]c45)ccc32)C1 reaches 5 or more?
Output: label 0

Task: Could you tell me if the measured pIC50 of C=CC(=O)N1CC(N(C)C(=O)Cn2c(CC)c(C(=O)N3CCc4c(ccnc4OC)C3)c3cc(Cl)cc(C)c32)C1 reaches 5 or more?
Output: label 1

Task: Could you tell me if the measured pIC50 of C=CC(=O)N1CC(NC(=O)Cn2cc(-c3c(C)ccc4cn[nH]c34)c3cc(Br)ccc32)C1 reaches 5 or more?
Output: label 1

Task: Could you tell me if the measured pIC50 of C=CC(=O)N1CC(NC(=O)Cn2c3ccccc3c3ccccc32)C1 reaches 5 or more?
Output: label 0

---
Task: Could you tell me if the measured pIC50 of C=CC(=O)N1CC(NC(=O)Cn2c(CC)c(C(=O)N3CCc4c(cccc4OC)C3)c3cc(Cl)cc(C)c32)C1 reaches 5 or more?
Output: label 1

###

# System: Phosphorylation of ERK1/2 in A549 cells
# procedureDetails: Phospho-ERK1/2 MSD Assay (A549)
# Type: cell-based
# experimentalContext: Homo sapiens, read-out: pERK IC50 (4 h), 4 h compound treatment
Below: a set of entries, each annotated with reported IC50.

Task: Please give the documented IC50 of C=CC(=O)N1CC(NC(=O)Cn2c(C)c(-c3ccccc3CN(C)C)c3cc(Cl)ccc32)C1 [Example 32]
Output: > 100 µM

Task: Please give the documented IC50 of C=CC(=O)N1CC(NC(=O)Cn2c(C(=O)NCc3ccccc3CN(C)C)cc3cc(Br)ccc32)C1 [Example 88]
Output: > 100 µM

Task: Please give the documented IC50 of C=CC(=O)N1CC(NC(=O)Cn2cc(CNCc3ccccc3)c3cc(Br)ccc32)C1 [Example 136]
Output: 36.6 µM

Task: Please give the documented IC50 of C=CC(=O)N1CC(NC(=O)Cn2c(C)c(-c3ccccc3C)c3cc(Cl)ccc32)C1 [Example 121]
Output: > 100 µM

---
Task: Please give the documented IC50 of C=CC(=O)N1CC(NC(=O)Cn2c(C)c(-c3cncnc3C3CC3)c3cc(Cl)ccc32)C1 [Example 30]
Output: > 100 µM

Task: Please give the documented IC50 of C=CC(=O)N1CC(NC(=O)Cn2c(C)c(-c3ccccc3OC(C)C)c3cc(Cl)ccc32)C1 [Example 113]
Output: > 100 µM

Task: Please give the documented IC50 of C=CC(=O)N1CC(N2CCC(n3cc(I)c4cc(Cl)ccc43)C2=O)C1 (centres unmarked) [Example 90]
Output: > 100 µM

Task: Please give the documented IC50 of C=CC(=O)N1CC(NC(=O)Cn2c3ccc(Br)cc3c3c(Cl)ccnc32)C1 [Example 75]
Output: > 100 µM

###

Below: a set of entries, each annotated with reported pIC50.
# Tested on: Phosphorylation of ERK1/2 in MIA PaCa-2 cells
# procedureDetails: Phospho-ERK1/2 MSD Assay
# Assay type: cell-based
# experimentalContext: Homo sapiens, MIA PaCa-2, read-out: pERK IC50 (4 h); 4 h compound treatment; MiaPaCa-2 cells
Conceptually, pIC50 converts a concentration in mol/L into minus its log10.

Solved cases below.
Task: Please give the documented pIC50 of C=CC(=O)N1CC(NC(=O)Cn2cc(-c3ccccc3C(C)C)c3cc(Br)cc(C)c32)C1
Output: 4.51

Task: Please give the documented pIC50 of C=CC(=O)N1CC(NC(=O)Cn2cc(I)c3cc(Cl)ccc32)C1
Output: 4.39

Task: Please give the documented pIC50 of C=CC(=O)N1CC(NC(=O)Cn2c3c(c4cc(Br)ccc42)CCCCC3)C1
Output: 4.67

---
Task: Please give the documented pIC50 of C=CC(=O)N1CC(NC(=O)Cn2c3c(c4cc(Br)ccc42)CC(c2ccccc2)CC3)C1 (centres unmarked)
Output: 4.42

Task: Please give the documented pIC50 of C=CC(=O)N1CC(NC(=O)Cn2c(C)c(-c3ccccc3-c3ccccc3)c3cc(Cl)ccc32)C1
Output: 5.06

###

# studySystem: GDP-bound KRAS protein (aa 1-169), containing both G12C and C118A amino acid substitutions (Homo sapiens (Human), UniProt P01116, C118A/G12C)
# procedureDetails: Coupled Nucleotide Exchange Assay
# Assay type: biochemical
# experimentalContext: read-out: Coupled Exchange IC50 (2 h); 2 h compound pre-incubation
Below: a set of entries, each annotated with reported log10(IC50).
// stored as log10 of IC50 expressed in µM

Solved cases below.
Task: Please give the documented log10(IC50) of C=CC(=O)N1CC(N(C)C(=O)Cn2c(C)c(C(=O)N3CCc4c(cccc4OC)C3)c3cc(Br)cc(C)c32)C1
Output: -1.05

Task: Please give the documented log10(IC50) of C=CC(=O)N1CC(NC(=O)Cn2c3c(c4cc([N+](=O)[O-])ccc42)CCCCC3)C1
Output: 0.63

Task: Please give the documented log10(IC50) of C=CC(=O)N1CC(NC(=O)Cn2c(C)c(C(=O)N3[C@H](C)Cc4c(OC)cccc4[C@H]3C)c3cc(Br)cc(C)c32)C1 (stereo in doubt)
Output: -0.80

Task: Please give the documented log10(IC50) of C=CC(=O)N1CC(NC(=O)Cn2c3c(c4cc(Br)ccc42)CCCC3)C1
Output: 0.69

Task: Please give the documented log10(IC50) of C=CC(=O)N1CC(NC(=O)Cn2cc(C(=O)N3CCc4c(Br)cc(C)cc4C3)c3cc(Cl)cc(Cl)c32)C1
Output: -0.41

Task: Please give the documented log10(IC50) of C=CC(=O)N1CC(NC(=O)Cn2c(C)c(C(=O)N3CCc4ccccc4C3(C)C)c3cc(Br)cc(C)c32)C1
Output: -0.54

---
Task: Please give the documented log10(IC50) of C=CC(=O)N1CC(NC(=O)Cn2c(C(=O)NCCc3ccccc3)cc3cc(Br)ccc32)C1
Output: 1.19

Task: Please give the documented log10(IC50) of C=CC(=O)N1CC(NC(=O)Cn2c(C3CC3)c(C(=O)N3CCN(c4ccc(C#N)cn4)CC3)c3cc(Cl)cc(C)c32)C1
Output: -0.24

Task: Please give the documented log10(IC50) of C=CC(=O)N1CC(NC(=O)Cn2cc(Cc3ccccc3)c3cc(Br)ccc32)C1
Output: 1.01

Task: Please give the documented log10(IC50) of C=CC(=O)N1CC(NC(=O)Cn2cc(I)c3cc(C(F)(F)F)ccc32)C1
Output: 0.96

Task: Please give the documented log10(IC50) of C=CC(=O)N1CC(NC(=O)Cn2ccc3cc(Br)c(C)cc32)C1
Output: 1.42

Task: Please give the documented log10(IC50) of C=CC(=O)N1CC(N2CCC(n3cc(I)c4cc(Cl)ccc43)C2=O)C1 (stereo not drawn)
Output: 0.63

Task: Please give the documented log10(IC50) of C=CC(=O)N1CC(NC(=O)Cn2c3c(c4cc(Br)ccc42)CN(C(=O)OCc2ccccc2)CC3)C1
Output: 0.86

Task: Please give the documented log10(IC50) of C=CC(=O)N1CC(NC(=O)Cn2c(CC)c(C(=O)N3CCN(c4ccc(C#N)cn4)C[C@H]3C)c3cc(Cl)cc(C)c32)C1
Output: -0.82

Task: Please give the documented log10(IC50) of C=CC(=O)N1CC(NC(=O)Cn2c(C3CC3)c(C(=O)N3CCOC(C)(C)C3)c3cc(Cl)cc(C)c32)C1
Output: -0.02
